- ASSAY SYSTEM: DRB1*1201 (DR5w12) (Homo sapiens, UniProt P01903+P01911, A100R/A169T/D57E/D86V/F55L/H45Y/K41T/L162R/M171V/P40S/Q125H/Q178H/Q39Y/Q99D/R42G/S66L/T262R/V114A/V67L/W38E/Y59H/Y61H/Y89S)
- Construct: Epstein-Barr virus (EBV) transformed homozygous cell lines were used as sources; endogenous in cells; host or cells: Herluf (EBV-transformed homozygous B cell line)
- METHOD DESCRIPTION: biochemical
- Type: binding
- STUDY CONDITIONS: read-out: Binding Capacity (IC 50% nM) Other Alleles DR5w12
PROPERTY LABEL: IC50

COMPOUND	IC50
CC(C)C[C@H](NC(=O)[C@H](CC(C)C)NC(=O)CNC(=O)[C@H](C)NC(=O)[C@H](CC(C)C)NC(=O)[C@@H](NC(=O)[C@H](CO)NC(=O)[C@@H](NC(=O)[C@H](C)NC(=O)[C@H](CC(C)C)NC(=O)[C@H](CCCCN)NC(=O)[C@H](Cc1ccc(O)cc1)NC(=O)[C@H](CCCCN)NC(=O)[C@H](CO)NC(=O)[C@@H](N)CCCCN)[C@@H](C)O)C(C)C)C(=O)O [Peptide 1188.16]	> 1000 nM

Next compound, IC50 to be filled in.
Exercise: Tell us which IC50 value is on record for CC[C@H](C)[C@H](NC(=O)[C@H](CC(=O)O)NC(=O)[C@H](CC(C)C)NC(=O)[C@@H](NC(=O)CNC(=O)[C@@H](NC(=O)[C@@H](NC(=O)[C@@H](NC(=O)[C@@H](NC(=O)[C@H](C)NC(=O)[C@H](CC(C)C)NC(=O)[C@@H](NC(=O)[C@H](CC(N)=O)NC(=O)[C@H](CO)NC(=O)[C@H](CC(C)C)NC(=O)[C@@H](N)CC(N)=O)C(C)C)[C@@H](C)O)[C@@H](C)CC)[C@@H](C)O)[C@@H](C)O)C(C)C)C(=O)O [Peptide 1136.24]
Key: > 1000 nM
